assay: Plasma pharmacokinetics; format: in vivo, human; details: human, plasma, oral, 90 mg, Tmax, MK‐2206 alone; Escalation, level 3; MK‐2206 90 mg, dinaciclib 12 mg/m^2; median
experimental_readout: Tmax

compound_structure_string	experimental_value
NC1(c2ccc(-c3nc4ccn5c(=O)[nH]nc5c4cc3-c3ccccc3)cc2)CCC1	5.97 h

---

test: Plasma pharmacokinetics; type: in vivo, human; conditions: human, plasma, oral, Tmax, MK‐2206 in combination; Expansion, arm A; MK‐2206 135 mg, dinaciclib 9 mg/m^2; median

compound_structure_string	Tmax / h
NC1(c2ccc(-c3nc4ccn5c(=O)[nH]nc5c4cc3-c3ccccc3)cc2)CCC1	10.2

---

test: Plasma pharmacokinetics; format: in vivo, human; settings: human, plasma, oral, Tmax, MK‐2206 in combination; Expansion, arm B; MK‐2206 135 mg, dinaciclib 9 mg/m^2; median
experimental_readout: Tmax (h)

compound_structure_string	experimental_value
NC1(c2ccc(-c3nc4ccn5c(=O)[nH]nc5c4cc3-c3ccccc3)cc2)CCC1	5.13

---

assay: Plasma pharmacokinetics; assay type: in vivo, human; details: human, plasma, oral, T 1/2, MK‐2206 in combination; Expansion, arm A; MK‐2206 135 mg, dinaciclib 9 mg/m^2; mean ± SD
experimental_readout: half-life (h)

molecule	experimental_value
NC1(c2ccc(-c3nc4ccn5c(=O)[nH]nc5c4cc3-c3ccccc3)cc2)CCC1 [MK‐2206]	69.7

---

test: Plasma pharmacokinetics; type: in vivo, human; settings: human, plasma, oral, 90 mg, T 1/2, MK‐2206 alone; Escalation, level 3; MK‐2206 90 mg, dinaciclib 12 mg/m^2; mean ± SD
experimental_readout: half-life (h)

compound_structure_string	output_unit	experimental_value
NC1(c2ccc(-c3nc4ccn5c(=O)[nH]nc5c4cc3-c3ccccc3)cc2)CCC1	h	68.3

Measured values drawn from paper PMC7719383 for this set.
